target_desc: TLR4 (Mus musculus, UniProt Q9QUK6)
Construct: endogenous in cells; host or cells: RAW264.7 (murine macrophage cell line)
Sequence (Q9QUK6 26-835): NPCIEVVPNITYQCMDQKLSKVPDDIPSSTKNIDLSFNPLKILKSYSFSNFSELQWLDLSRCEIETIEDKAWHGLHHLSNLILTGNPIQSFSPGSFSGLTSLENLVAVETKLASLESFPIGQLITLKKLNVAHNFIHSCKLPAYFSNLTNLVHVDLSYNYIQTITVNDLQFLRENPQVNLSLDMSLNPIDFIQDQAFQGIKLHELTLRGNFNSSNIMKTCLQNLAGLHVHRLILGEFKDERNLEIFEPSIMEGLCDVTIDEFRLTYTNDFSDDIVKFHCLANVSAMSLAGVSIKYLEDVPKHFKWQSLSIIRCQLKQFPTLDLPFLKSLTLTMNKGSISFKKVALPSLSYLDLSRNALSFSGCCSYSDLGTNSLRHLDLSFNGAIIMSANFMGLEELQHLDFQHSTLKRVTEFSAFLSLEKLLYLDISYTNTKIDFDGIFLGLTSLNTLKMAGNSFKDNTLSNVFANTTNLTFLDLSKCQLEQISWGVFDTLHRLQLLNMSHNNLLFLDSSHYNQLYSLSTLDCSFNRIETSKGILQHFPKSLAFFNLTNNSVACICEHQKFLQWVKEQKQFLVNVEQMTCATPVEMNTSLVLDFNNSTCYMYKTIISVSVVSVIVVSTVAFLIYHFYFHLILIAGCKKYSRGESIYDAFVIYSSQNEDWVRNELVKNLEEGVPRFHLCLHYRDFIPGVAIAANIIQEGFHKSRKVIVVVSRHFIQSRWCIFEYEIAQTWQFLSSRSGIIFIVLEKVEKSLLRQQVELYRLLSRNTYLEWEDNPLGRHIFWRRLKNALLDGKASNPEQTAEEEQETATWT
Sequence (Q9JHF9 19-160 partner): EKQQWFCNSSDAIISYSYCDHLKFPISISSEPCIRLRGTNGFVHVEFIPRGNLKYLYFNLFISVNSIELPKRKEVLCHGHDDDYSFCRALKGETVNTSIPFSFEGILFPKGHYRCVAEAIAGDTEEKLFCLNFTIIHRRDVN
test_name: Inhibitory effect with respect to NO production (LPS/interferon γ stimulated RAW264.7 cells)
Format: cell-based, murine
stated_conditions: test compound 100 nM, LPS 1.25 ng/mL + mouse interferon γ 0.2 ng/mL, nitrite ion in culture supernatant, 0.1 µM
NO production inhibitory effect at 100 nM (% inhibition) listing for selected compounds.
API: value field is a number in % inhibition; no unit string.

// worked examples, NO production inhibitory effect at 100 nM (% inhibition) included
compound | target_desc | meas_value
CCOC(=O)C1=CC2(CCC1S(=O)(=O)Cc1ccc(F)cc1Cl)O[C@@H](CO)[C@H](CO)O2 (single isomer, unassigned) [Compound 7] | TLR4 (Mus musculus, UniProt Q9QUK6) | 100
CCOC(=O)C1=CC2(CCC1S(=O)(=O)Cc1ccc(F)cc1Cl)O[C@H](CO)[C@@H](CO)O2 (single isomer, unassigned) [Compound 14] | TLR4 (Mus musculus, UniProt Q9QUK6) | 100
CCOC(=O)C1=CC2(CCC1S(=O)(=O)Cc1ccc(F)cc1Cl)O[C@H](CO)[C@@H](CO)O2 (single isomer, unassigned) [Compound 15] | TLR4 (Mus musculus, UniProt Q9QUK6) | 75

Input: Identify measured NO production inhibitory effect at 100 nM (% inhibition) corresponding to CCOC(=O)C1=CC2(CCC1S(=O)(=O)C(C)c1ccc(F)cc1Cl)O[C@H](CO)[C@@H](CO)O2 (single isomer, unassigned) [Compound 19]
Output: 110

Input: Identify measured NO production inhibitory effect at 100 nM (% inhibition) corresponding to CCOC(=O)C1=CC2(CCC1S(=O)(=O)Cc1ccc(F)cc1Cl)OC[C@@H](CO)O2 (some centres unmarked) [Compound 8]
Output: 100

Input: Identify measured NO production inhibitory effect at 100 nM (% inhibition) corresponding to CCOC(=O)C1=CC2(CCC1S(=O)(=O)Cc1ccc(F)cc1Cl)OC[C@@H](CO)O2 (some centres unmarked) [Compound 9]
Output: 110

Input: Identify measured NO production inhibitory effect at 100 nM (% inhibition) corresponding to CCOC(=O)C1=CC2(CCC1S(=O)(=O)C(C)c1ccc(F)cc1Cl)O[C@H](CO)[C@@H](CO)O2 (single isomer, unassigned) [Compound 20]
Output: 77

Input: Identify measured NO production inhibitory effect at 100 nM (% inhibition) corresponding to CCOC(=O)C1=CC2(CCC1S(=O)(=O)Cc1ccc(F)cc1Cl)O[C@@H](CO)[C@H](CO)O2 (single isomer, unassigned) [Compound 6]
Output: 92
